# Tgt: wild-type mini-SF3b complex (4-protein SF3b complex) (Homo sapiens, UniProt O75533+Q7RTV0)
# Construct: SF3B1 was limited to the HEAT repeat domain from residues 454–1304 and cloned in-frame with an N-terminal Flag tag; Truncated SF3B1 and full-length SF3B3, PHF5A, and SF3B5 were synthesized; made in house; host or cells: SF21 insect cells (baculovirus, pFastBac1)
# Sequence (Q7RTV0 whole entry, the tested form may be a part): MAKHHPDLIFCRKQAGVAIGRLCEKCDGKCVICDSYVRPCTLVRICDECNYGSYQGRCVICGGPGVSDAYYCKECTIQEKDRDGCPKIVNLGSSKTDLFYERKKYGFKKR
# Sequence (Q15393 whole entry, further chain, the tested form may be a part): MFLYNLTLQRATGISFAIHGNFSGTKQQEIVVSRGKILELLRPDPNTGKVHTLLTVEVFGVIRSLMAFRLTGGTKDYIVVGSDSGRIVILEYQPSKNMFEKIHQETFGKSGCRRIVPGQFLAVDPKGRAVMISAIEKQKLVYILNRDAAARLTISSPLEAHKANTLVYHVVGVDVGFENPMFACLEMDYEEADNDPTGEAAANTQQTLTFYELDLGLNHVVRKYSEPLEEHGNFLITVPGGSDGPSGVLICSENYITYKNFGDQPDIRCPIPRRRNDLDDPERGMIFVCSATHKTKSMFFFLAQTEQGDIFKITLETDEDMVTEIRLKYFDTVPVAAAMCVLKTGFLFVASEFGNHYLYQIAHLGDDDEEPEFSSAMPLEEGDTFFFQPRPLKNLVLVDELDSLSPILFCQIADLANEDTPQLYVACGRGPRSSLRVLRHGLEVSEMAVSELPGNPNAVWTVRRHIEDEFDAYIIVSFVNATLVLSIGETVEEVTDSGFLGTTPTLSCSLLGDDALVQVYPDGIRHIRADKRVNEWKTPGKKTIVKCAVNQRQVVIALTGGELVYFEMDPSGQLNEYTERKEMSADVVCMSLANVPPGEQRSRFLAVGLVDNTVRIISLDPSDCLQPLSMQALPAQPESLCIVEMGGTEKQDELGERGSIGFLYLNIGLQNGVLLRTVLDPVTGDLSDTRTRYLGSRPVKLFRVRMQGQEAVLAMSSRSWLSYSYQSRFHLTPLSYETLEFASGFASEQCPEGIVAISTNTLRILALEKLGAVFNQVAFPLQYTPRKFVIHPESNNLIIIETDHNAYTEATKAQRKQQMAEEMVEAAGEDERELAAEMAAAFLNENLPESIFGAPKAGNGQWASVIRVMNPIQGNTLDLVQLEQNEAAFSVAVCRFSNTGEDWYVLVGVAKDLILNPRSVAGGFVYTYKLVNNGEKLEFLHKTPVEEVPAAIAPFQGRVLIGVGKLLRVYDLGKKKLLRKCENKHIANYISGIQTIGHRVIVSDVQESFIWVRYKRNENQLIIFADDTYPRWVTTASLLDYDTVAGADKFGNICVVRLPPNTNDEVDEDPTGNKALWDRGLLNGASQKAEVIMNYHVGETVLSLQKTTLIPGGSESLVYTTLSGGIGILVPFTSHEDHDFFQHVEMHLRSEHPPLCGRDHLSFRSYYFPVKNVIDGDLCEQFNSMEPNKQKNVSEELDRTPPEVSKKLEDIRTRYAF
# Sequence (O75533 454-1304): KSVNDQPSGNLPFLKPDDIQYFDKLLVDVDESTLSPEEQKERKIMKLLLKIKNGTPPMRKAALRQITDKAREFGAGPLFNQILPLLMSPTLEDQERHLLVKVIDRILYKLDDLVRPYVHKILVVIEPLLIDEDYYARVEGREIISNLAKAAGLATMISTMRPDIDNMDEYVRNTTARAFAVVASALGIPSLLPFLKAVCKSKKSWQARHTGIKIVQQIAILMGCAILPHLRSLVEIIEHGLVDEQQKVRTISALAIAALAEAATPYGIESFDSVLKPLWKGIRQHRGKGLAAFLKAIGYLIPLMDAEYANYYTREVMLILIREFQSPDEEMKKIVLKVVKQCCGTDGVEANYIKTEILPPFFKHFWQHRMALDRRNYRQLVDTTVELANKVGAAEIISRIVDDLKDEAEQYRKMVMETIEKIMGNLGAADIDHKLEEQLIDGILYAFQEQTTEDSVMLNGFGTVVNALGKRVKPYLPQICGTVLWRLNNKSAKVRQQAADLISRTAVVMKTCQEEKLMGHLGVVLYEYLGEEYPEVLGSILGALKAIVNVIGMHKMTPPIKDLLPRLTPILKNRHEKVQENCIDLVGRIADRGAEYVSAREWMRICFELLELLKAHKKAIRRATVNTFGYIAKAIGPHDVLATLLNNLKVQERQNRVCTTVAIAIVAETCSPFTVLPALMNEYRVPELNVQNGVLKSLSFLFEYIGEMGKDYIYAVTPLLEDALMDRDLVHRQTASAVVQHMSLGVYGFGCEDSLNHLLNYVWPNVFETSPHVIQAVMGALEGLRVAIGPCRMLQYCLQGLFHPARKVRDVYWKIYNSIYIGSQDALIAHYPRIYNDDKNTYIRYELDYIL
# Sequence (Q9BWJ5 whole entry, further chain, the tested form may be a part): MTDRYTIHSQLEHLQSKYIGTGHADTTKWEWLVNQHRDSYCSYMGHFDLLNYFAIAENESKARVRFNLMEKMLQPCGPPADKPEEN
# Experiment notes: Scintillation proximity assay (SPA) competition with 3H-labeled pladienolide probe
# Type: binding
# Condition description: competition with 10 nM 3H-labeled pladienolide probe, 25 nM protein; read-out: SPA IC50
This listing pairs molecules with measured pIC50.
Lab note: report pIC50 as minus log10 of the concentration in molar units, number only.

response.value for CCC(O)C(C)C1OC1CC(C)(O)C=CC=C(C)C1OC(=O)CC(O)CCC(C)(O)C(OC(=O)N2CC[N+](Cc3ccccc3)(C3CCCCCC3)CC2)C=CC1C (stereo not drawn) (field: pIC50) = 6.63

Let's switch to this molecule now.
Entry CCC(O)C(C)C1OC1CC(C)(O)C=CC=C(C)C1OC(=O)CC(O)CCC(C)(O)C(OC(=O)N2CCN(C3CCCCCC3)CC2)C=CC1C (stereo not drawn) , pIC50 reported as 7.17
